Provenance of the data: patent US11661400B2

Listed here are compounds together with their documented inhibition at 0.1 µM.
Biological target: NOX1 (Homo sapiens)
Construct: endogenous in cells; host or cells: HT29
Assay: NOX1 HT29 cell-based assay (luminol/HRP luminescence)
Settings: HT-29; 100 nM; HT29 cells; DMSO = 0%, GKT137831 = 100%

Answered cases to consult:
Recall the recorded inhibition at 0.1 µM for COc1ccc(C(=O)COC(=O)c2ccc3c(=O)c(O)c(-c4ccc(OC)cc4)[nH]c3c2)cc1 [Compound 32, 2,2,2-trifluoroacetate] with NOX1 (Homo sapiens) and state it. ≤ 19%

And then COc1ccc(-c2[nH]c3cc(OC)c(OC)cc3c(=O)c2O)cc1 [Compound 2, 2,2,2-trifluoroacetate] , what is it? ≥ 80%

And then COc1ccccc1-c1[nH]c2cccc(Br)c2c(=O)c1O , what is it? 50 to 79%

And then COc1cc2[nH]c(-c3ccc(Cl)cc3Cl)c(O)c(=O)c2cc1OC , what is it? ≥ 80%

And then COc1cc2[nH]c(C(C)(C)C)c(O)c(=O)c2cc1OC , what is it? ≤ 19%

***
Recall the recorded inhibition at 0.1 µM for COc1cc2[nH]c(-c3ccc(C)cc3)c(O)c(=O)c2cc1OC with NOX1 (Homo sapiens) and state it. ≥ 80%

And then COc1ccc(-c2[nH]c3cc(OC)c(OC)cc3c(=O)c2O)c(OC)c1 , what is it? ≥ 80%

And then COc1cc2[nH]c(-c3ccccc3)c(N)c(=O)c2cc1OC , what is it? ≤ 19%

---

Molecular target: NOX2 (Homo sapiens)
Construct: HL-60 cells, rich in NOX2 expression; endogenous in cells; host or cells: DMSO-differentiated HL-60
Sequence (P04839 2-570 limits assumed): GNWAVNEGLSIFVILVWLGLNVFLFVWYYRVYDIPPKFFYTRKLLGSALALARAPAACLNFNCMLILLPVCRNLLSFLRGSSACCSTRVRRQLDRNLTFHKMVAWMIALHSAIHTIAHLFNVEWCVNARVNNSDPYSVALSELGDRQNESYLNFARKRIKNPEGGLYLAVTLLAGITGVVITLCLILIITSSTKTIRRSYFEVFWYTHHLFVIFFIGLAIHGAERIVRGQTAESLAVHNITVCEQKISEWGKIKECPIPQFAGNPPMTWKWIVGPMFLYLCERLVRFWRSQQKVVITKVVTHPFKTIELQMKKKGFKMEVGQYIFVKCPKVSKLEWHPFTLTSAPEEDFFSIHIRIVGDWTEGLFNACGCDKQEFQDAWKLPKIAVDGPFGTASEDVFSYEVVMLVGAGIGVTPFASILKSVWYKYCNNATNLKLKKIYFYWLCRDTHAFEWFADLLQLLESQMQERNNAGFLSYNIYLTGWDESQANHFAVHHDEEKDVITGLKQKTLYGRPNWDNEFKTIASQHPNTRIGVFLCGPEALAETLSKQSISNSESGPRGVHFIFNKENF
Sequence (P13498 2-195 partner limits assumed): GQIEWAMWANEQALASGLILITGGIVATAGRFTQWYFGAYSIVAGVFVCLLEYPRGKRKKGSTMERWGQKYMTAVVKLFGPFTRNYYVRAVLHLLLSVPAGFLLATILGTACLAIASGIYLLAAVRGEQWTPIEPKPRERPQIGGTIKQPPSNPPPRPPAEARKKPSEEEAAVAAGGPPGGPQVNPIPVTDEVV
Assay: NOX2 HL60 cell-based assay (PMA oxidative burst, L012 chemiluminescence)
Settings: HL-60, 1000 nM; DMSO-differentiated HL-60 cells, PMA-stimulated
Measured Property: inhibition at 1 µM

Answered cases to consult:
# get_value(readout='inhibition at 1 µM', item= COc1cc(Br)c(-c2[nH]c3cc(OC)c(OC)cc3c(=O)c2O)c(OC)c1 [Compound 27] ) ≥ 80%

And then COc1cc2[nH]c(C(C)(C)C)c(O)c(=O)c2cc1OC [Compound 14] , what is it? ≤ 19%

And then COc1cc2[nH]c(-c3ccccc3Cl)c(O)c(=O)c2cc1OC [Compound 9] , what is it? ≥ 80%

And then COc1ccc(-c2[nH]c3cc(OC)c(OC)cc3c(=O)c2O)c(OC)c1 [Compound 15] , what is it? ≥ 80%

And then COc1cccc(-c2[nH]c3cc(OC)c(OC)cc3c(=O)c2O)c1 [Compound 4] , what is it? 50 to 79%

And then COc1cc2[nH]c(-c3ccccc3OC)c(N)c(=O)c2cc1OC [Compound 38] , what is it? ≤ 19%

And then COc1cc2[nH]c(-c3ccccc3OC)c(O)c(=O)c2cc1OC.Cl [Compound 51] , what is it? ≥ 80%

And then COc1ccccc1-c1[nH]c2cc3c(cc2c(=O)c1O)OCO3 [Compound 26] , what is it? ≥ 80%

And then COc1cc2[nH]c(-c3ccccc3S(C)(=O)=O)c(O)c(=O)c2cc1OC [Compound 23] , what is it? ≥ 80%

And then COc1cc2[nH]c(-c3ccc(C)cc3)c(O)c(=O)c2cc1OC [Compound 6] , what is it? ≤ 19%

***
# get_value(readout='inhibition at 1 µM', item= COc1cc2[nH]c(-c3ccccc3)c(N)c(=O)c2cc1OC [Compound 37] ) ≥ 80%

And then COc1ccccc1-c1[nH]c2cccc(Br)c2c(=O)c1O [Compound 25] , what is it? 50 to 79%

And then COc1cc2[nH]c(-c3ccc(C(F)(F)F)cc3)c(O)c(=O)c2cc1OC [Compound 12] , what is it? ≤ 19%

And then COc1cc2[nH]c(-c3ccccc3N)c(O)c(=O)c2cc1OC [Compound 30] , what is it? ≥ 80%

And then COc1ccccc1-c1[nH]c2cccc(-c3cccc(N(C)C)c3)c2c(=O)c1O [Compound 40] , what is it? 50 to 79%

---

Target: NOX1 (Homo sapiens, UniProt Q9Y5S8)
Construct: endogenous in cells; host or cells: HT29
Sequence (Q9Y5S8 whole entry): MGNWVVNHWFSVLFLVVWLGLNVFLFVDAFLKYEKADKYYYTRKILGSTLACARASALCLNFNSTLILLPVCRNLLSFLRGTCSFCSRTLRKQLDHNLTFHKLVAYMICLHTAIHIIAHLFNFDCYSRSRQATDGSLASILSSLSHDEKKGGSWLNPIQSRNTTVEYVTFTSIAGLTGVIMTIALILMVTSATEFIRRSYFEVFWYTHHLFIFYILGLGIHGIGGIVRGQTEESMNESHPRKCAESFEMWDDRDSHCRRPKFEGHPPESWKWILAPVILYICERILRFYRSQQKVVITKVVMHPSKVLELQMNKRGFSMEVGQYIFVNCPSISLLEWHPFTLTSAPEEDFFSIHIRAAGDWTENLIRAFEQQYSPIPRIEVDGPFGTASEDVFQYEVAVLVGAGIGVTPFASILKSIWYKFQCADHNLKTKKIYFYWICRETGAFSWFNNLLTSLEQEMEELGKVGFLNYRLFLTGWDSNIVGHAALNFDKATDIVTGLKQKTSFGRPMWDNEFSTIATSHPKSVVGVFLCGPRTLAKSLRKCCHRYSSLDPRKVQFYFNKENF
Sequence (P13498 2-195 partner limits assumed): as the sequence (P13498 2-195 partner limits assumed) above
Test: NOX1 HT29 cell-based assay (luminol/HRP luminescence)
Conditions: HT-29; 100 nM; HT29 cells; DMSO = 0%, GKT137831 = 100%
Protocol: NOX1 HT29 Cell-Based Assay: HT29 cells were cultured in T75 flask (Corning) and when 70-80% confluence was reached, cells were trypsinized, harvested in HBSS and counted. […] Luminescence was quantified using a SpectraMax i3 Multiplate reader (Molecular Devices, Sunnyvale, Calif., USA). As designed, compounds that inhibit NOX1 activity will reduce cellular ROS production, leading to reduced probe-ROS interactions and reduced well luminescence. […]
Listed here are compounds together with their documented inhibition at 0.1 µM.

Answered cases to consult:
Recall the recorded inhibition at 0.1 µM for COc1cc2[nH]c(-c3cccs3)c(O)c(=O)c2cc1OC with NOX1 (Homo sapiens, UniProt Q9Y5S8) and state it. ≥ 80%

And then COc1cc2[nH]c(-c3ccccc3C(F)(F)F)c(O)c(=O)c2cc1OC , what is it? ≥ 80%

***
Recall the recorded inhibition at 0.1 µM for COc1ccccc1-c1[nH]c2c(OC)c(OC)c(OC)cc2c(=O)c1O with NOX1 (Homo sapiens, UniProt Q9Y5S8) and state it. ≥ 80%

And then COc1ccccc1-c1[nH]c2cccc(-c3cccc(N(C)C)c3)c2c(=O)c1O , what is it? ≤ 19%

And then COc1cc2[nH]c(-c3ccc(Cl)cc3)c(O)c(=O)c2cc1OC , what is it? ≤ 19%

---

Listed here are compounds together with their documented inhibition at 1 µM.
Biological target: NOX4 (Homo sapiens)
Construct: expressed in transfected cells
Sequence (Q9NPH5 whole entry, species assumed, one chain of several): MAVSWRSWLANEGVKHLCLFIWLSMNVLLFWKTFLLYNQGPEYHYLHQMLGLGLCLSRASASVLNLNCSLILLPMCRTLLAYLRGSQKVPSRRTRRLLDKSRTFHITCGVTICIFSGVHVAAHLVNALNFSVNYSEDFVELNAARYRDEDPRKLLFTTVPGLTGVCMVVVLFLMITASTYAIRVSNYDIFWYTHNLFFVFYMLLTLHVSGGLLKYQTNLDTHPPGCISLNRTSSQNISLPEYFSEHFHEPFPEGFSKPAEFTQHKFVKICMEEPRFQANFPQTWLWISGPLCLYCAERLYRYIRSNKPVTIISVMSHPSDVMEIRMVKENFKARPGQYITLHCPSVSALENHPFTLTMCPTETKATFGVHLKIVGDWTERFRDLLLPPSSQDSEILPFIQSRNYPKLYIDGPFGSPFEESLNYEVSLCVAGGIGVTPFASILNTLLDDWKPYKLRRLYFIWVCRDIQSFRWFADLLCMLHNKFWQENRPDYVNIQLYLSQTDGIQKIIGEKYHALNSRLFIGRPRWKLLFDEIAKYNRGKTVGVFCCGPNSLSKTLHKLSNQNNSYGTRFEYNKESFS
Test: NOX4 HEK293 overexpression cell-based assay (Amplex Red H2O2)
Details: HEK293, 1000 nM; HEK293 cells stably overexpressing NOX4; DMSO = 0, GKT137831 = 100

# get_value(readout='inhibition at 1 µM', item= COc1cc2[nH]c(-c3ccc(Cl)cc3Cl)c(O)c(=O)c2cc1OC [Compound 24] ) 50 to 79%

And then COc1cc2[nH]c(-c3ccccc3N)c(O)c(=O)c2cc1OC [Compound 30] , what is it? ≤ 19%

And then COc1cc2[nH]c(-c3ccc(N4CCCC4)cc3)c(O)c(=O)c2cc1OC [Compound 11] , what is it? ≥ 80%

And then COc1ccc(-c2[nH]c3cc(C(=O)O)ccc3c(=O)c2O)cc1 [Compound 33] , what is it? 50 to 79%

And then COc1ccc(-c2c(O)c(=O)c3ccccc3n2C)cc1 [Compound 39] , what is it? 50 to 79%

***
# get_value(readout='inhibition at 1 µM', item= COc1ccc(-c2[nH]c3cc(OC)c(OC)cc3c(=O)c2O)c(OC)c1 [Compound 15] ) ≥ 80%

And then COc1cccc(-c2[nH]c3cc(OC)c(OC)cc3c(=O)c2O)c1 [Compound 4] , what is it? ≥ 80%

And then COc1ccc(-c2[nH]c3cc(OC)c(OC)cc3c(=O)c2O)cc1 [Compound 2, 2,2,2-trifluoroacetate] , what is it? ≥ 80%

And then COc1cc2[nH]c(-c3ccc(F)cc3)c(O)c(=O)c2cc1OC [Compound 13] , what is it? ≥ 80%

---

Listed here are compounds together with their documented inhibition at 0.1 µM.
Target: NOX1 (Homo sapiens, UniProt Q9Y5S8)
Construct: endogenous in cells; host or cells: HT29
Assay: NOX1 HT29 cell-based assay (luminol/HRP luminescence)
Conditions: HT-29; 100 nM; HT29 cells; DMSO = 0%, GKT137831 = 100%

Answered cases to consult:
# get_value(readout='inhibition at 0.1 µM', item= COc1cc2[nH]c(-c3ccc(N4CCCC4)cc3)c(O)c(=O)c2cc1OC ) ≤ 19%

And then COc1cc2[nH]c(-c3ccccc3OC)c(O)c(=O)c2cc1OC.Cl , what is it? ≥ 80%

And then COc1ccc2[nH]c(C(=O)c3ccccc3OC)c(O)c(=O)c2c1 , what is it? ≤ 19%

And then COc1ccc(-c2[nH]c3cc(C(=O)O)ccc3c(=O)c2O)cc1 , what is it? ≥ 80%

And then COc1cc2[nH]c(-c3ccccc3C)c(O)c(=O)c2cc1OC , what is it? ≥ 80%

And then COc1cc(Br)c(-c2[nH]c3cc(OC)c(OC)cc3c(=O)c2O)c(OC)c1 , what is it? ≥ 80%

***
# get_value(readout='inhibition at 0.1 µM', item= COc1cccc(-c2[nH]c3cc(OC)c(OC)cc3c(=O)c2O)c1 ) 50 to 79%

And then COc1cc2[nH]c(-c3ccccc3Cl)c(O)c(=O)c2cc1OC , what is it? ≥ 80%

And then COc1cc2[nH]c(-c3ccccc3F)c(O)c(=O)c2cc1OC , what is it? ≥ 80%
